molecular target: recombinant EGFR 790M/L858R kinase (Homo sapiens, UniProt P00533, L858R/T790M); construct: Constructs spanning residues 696-1022 of the human EGFR; GST (cleaved yes); assay: HTRF-based EGFR biochemical assay
Sequence (P00533 696-1022 T790M/L858R): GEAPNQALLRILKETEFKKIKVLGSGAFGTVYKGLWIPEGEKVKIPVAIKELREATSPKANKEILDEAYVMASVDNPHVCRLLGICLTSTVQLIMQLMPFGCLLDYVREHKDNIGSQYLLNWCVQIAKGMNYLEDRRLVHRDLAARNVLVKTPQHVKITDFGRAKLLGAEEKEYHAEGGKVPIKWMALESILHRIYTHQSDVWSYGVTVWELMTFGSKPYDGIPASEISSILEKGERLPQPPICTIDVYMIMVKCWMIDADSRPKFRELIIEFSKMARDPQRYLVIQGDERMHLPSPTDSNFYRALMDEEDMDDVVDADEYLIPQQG
pIC50: −log10 of the molar value.
quantityName: pIC50

Worked examples follow.
inputSmiles: COc1ccc(C2=CCNCC2)cc1C(=O)N[C@H]1CNc2ccc(F)cc2N(Cc2ccccc2)C1=O
pIC50: < 6.12
--
inputSmiles: CN1CCN(c2cccc(C(=O)N[C@H]3CNc4ccc(F)cc4N(Cc4ccccc4)C3=O)c2)CC1
pIC50: < 6.12
--
inputSmiles: COc1cc(N2CCOCC2)ccc1C(=O)N[C@H]1CNc2ccc(F)cc2N(Cc2ccccc2)C1=O
pIC50: < 6.12
--
inputSmiles: O=C1[C@@H](N2Cc3ccc(F)cc3C2=O)CNc2ccc(F)cc2N1Cc1ccccc1
pIC50: > 6.60

Switching to the query record.
Query: Dear colleague, I am looking for the recorded pIC50 of the following molecule: "CN1CCN(c2ccc(NC(=O)N[C@H]3CNc4ccc(F)cc4N(Cc4ccccc4)C3=O)cc2)CC1"
Result: < 6.12
